Where these numbers come from: the supplement of paper PMC3545927

- measurementTarget: furin, P09958;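 also: purified furin at 1:10 enzyme:substrate in 50 mM HEPES pH 7.5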
- Sequence (P09958 whole entry): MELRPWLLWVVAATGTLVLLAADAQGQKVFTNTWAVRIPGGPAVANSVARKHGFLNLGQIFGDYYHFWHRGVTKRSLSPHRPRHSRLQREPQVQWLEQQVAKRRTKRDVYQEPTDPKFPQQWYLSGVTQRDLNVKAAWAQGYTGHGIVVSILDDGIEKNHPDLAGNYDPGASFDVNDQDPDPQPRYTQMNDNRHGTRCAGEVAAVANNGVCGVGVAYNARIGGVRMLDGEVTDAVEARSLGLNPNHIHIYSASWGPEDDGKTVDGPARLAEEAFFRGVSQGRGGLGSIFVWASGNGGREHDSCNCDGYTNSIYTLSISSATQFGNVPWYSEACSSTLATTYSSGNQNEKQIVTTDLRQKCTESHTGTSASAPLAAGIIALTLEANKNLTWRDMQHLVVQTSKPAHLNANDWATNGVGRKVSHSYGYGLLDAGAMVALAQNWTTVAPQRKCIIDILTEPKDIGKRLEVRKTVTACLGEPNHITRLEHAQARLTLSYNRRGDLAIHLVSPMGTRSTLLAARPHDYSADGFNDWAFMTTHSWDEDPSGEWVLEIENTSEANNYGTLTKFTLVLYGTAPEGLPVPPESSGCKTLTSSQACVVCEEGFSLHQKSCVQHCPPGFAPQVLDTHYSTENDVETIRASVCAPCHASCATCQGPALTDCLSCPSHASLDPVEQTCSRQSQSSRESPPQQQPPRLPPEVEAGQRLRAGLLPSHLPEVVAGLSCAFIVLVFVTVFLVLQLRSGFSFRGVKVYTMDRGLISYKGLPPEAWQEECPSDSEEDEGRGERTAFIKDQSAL
- assayDetails: furin cleavage Z-score vs untreated control; higher = more cleavage, active = 3.5 or more, inactive = 1 or less, 8 variable residues between constant flanks
- assayContext: 15 min
Some of the results follow. No count for the full screen is at hand.
Classes based on furin cleavage Z-score: low: < 0.06; medium: ≥ 0.06 and < 10; high: ≥ 10

The examples below pair each entry with its known result.
INSERT INTO results (seq, classlabel) VALUES
  ('CAQAEAALENAGNASASA [HC532]', 'low'),
  ('CAQLRRLKRNAGNASASA [FS-284]', 'high'),
  ('CAASAYQVRNAGNASASA [HC255]', 'low'),
  ('CAQLRRHIDLAGNASASA [HC289]', 'medium'),
  ('CARRRRSGADAGNASASA [FS-2081]', 'medium');

// query Assign a bin to CADNVTPIDTAGNASASA [HC1435]
// result low

// query Each sequence maps to one class by furin cleavage Z-score. Which class for CARARRPHFDAGNASASA [FS-1848] ?
// result low

// query # bin label for CAESRRLPRSAGNASASA [FS-1321]
// result medium

// query Bin? CAGPGREDRFAGNASASA [FS-1590]
// result low

// query Using the reported furin cleavage Z-score, which band applies to CARARRFCRDAGNASASA [FS-2547] ?
// result high

// query Lab log: CAATQLRRHIAGNASASA [HC288] — assign furin cleavage Z-score category
// result medium

// query Dear colleague, I would appreciate it if you could identify the bin for CAVQCCSMSYAGNASASA [HC2022] and reply at your convenience.
// result medium

// query # bin label for CARKKREITEAGNASASA [FS-2963]
// result high

// query Hi, small favor: classify CALSFRLKRNAGNASASA [FS-1372] by its furin cleavage Z-score when you get a moment.
// result high

// query Class label required: CARSKRALKQAGNASASA [FS-2604]
// result high

// query Bin this entry: CAARNRQKRFAGNASASA [FS-1308]
// result high

// query Which class holds CALTSMLTDPAGNASASA [HC1246] ?
// result low
